- System: biotinyl-Trp-oxazolone
- protocolText: self-aminoacylation, catalytic enhancement (BWO) (fold over background); higher = more active; k-Seq, kA / k0A0; sequences stand for … in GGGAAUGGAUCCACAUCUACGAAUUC…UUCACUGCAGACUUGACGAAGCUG
Fewer inactive variants are shown than the library holds.
assayMetric: self-aminoacylation
Just the number, please, no unit attached.

Previously resolved entries follow.
seqString	self-aminoacylation
GUACUUCAAACGAUCGGUCUG [Fam1A.1 aminoacylation ribozyme variant]	1.8
CUACUUCAAAUAAUCAGUCUG [Fam1A.1 aminoacylation ribozyme variant]	3.71
AUAAACCUAGGUCAUCGGGUG [Fam2.2 aminoacylation ribozyme variant]	3.73
AUUCACCUAGGUAAUCGGGUC [Fam2.2 aminoacylation ribozyme variant]	0.691
UUUACCCCGGUCAUCGAGUGA [Fam2.1 aminoacylation ribozyme variant]	6.13

# get_value(readout='self-aminoacylation', item= AUUACCCUGGUCAUUGAGUGG [Fam2.1 aminoacylation ribozyme variant] )
3.09

Attribution: the supplement of paper PMC9233669
